- studySystem: T1, recombinant human LAG3(ECD)-his (Sino Biological, Cat #: 16498-H08H) (human, UniProt P18627 23-450)
- T1 construct: extracellular domain; Bought protein; not shown: his tag
- T1 sequence (looked up): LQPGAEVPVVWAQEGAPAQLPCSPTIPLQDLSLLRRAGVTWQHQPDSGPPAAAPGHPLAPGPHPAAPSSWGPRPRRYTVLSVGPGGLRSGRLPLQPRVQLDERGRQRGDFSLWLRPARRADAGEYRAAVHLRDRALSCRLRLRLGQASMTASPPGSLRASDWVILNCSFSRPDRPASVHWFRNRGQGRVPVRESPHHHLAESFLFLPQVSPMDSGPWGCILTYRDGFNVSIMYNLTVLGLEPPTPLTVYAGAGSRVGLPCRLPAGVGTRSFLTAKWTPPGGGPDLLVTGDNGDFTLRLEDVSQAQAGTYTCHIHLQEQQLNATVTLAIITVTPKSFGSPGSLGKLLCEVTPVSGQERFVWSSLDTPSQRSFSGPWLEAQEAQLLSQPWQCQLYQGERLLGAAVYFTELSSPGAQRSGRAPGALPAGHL
- assayMethodText: SPR (BIAcore 8K), human LAG3(ECD)-his coupled to chip, antibody injected, 1:1 Langmuir
readoutName: kon

query: Reported kon, binder humanized antibody 134G10H2L3 (antibody, human IgG4 S228P, kappa, V domains shown, Human IgG4 (S228P)/kappa) VH: EVQLVESGGGLVKPGGSLRLSCAASGFTFSSFGMSWVRQAPGKRLEWVSIISSGGTYTFYPDILKGRFTISRDNAKNSLYLQMNSLRAEDTAVYYCARVYSDYDGRFDYWGQGTLVTVSS VL: DIVMTQSPSSLAVSLGERATINCKSSQSLLNSGNQKNYLAWYQQKPGQPPKLLIYGASTRESGVPDRFTGSGSGTDFTLTISSLQAEDVAVYYCQNDHSYPLTFGAGTKLEIKR : ____
result: 166000 M⁻¹ s⁻¹

query: Try chimeric 134G10 antibody (antibody, human IgG4 S228P, kappa, V domains shown, Mouse variable regions on human IgG4 (S228P)/kappa constant regions; also called 134G10-CM) VH: EVQLVESGGDLVKPGGSLKLSCAASGFTFSSFGMSWVRQTPDKRLEWVGIISSGGTYTFYPDILKGRFTISRDNAKNTLYLQMSSLKSEDTAMYYCARVYSDYDGRFDYWGQGTTLTVSS VL: DIVMTQSPSSLSVSAGEKVTMNCKSSQSLLNSGNQKNYLAWYQQKPGQPPKLLIYGASTRESGVPDRFTGSGSGTDFTLTISSVQAEDLAVYYCQNDHSYPLTFGAGTKLELKR next.
result: 93900 M⁻¹ s⁻¹

query: Try humanized antibody 101F4H2L2 (antibody, human IgG4 S228P, kappa, V domains shown, Human IgG4 (S228P)/kappa) VH: QVQLVQSGAEVKKPGASVKVSCKVSGYTFTDYEMHWVRQAPGKGLEWMGAIDPETGGIVYNQRFKGRVTLTADTSTDTAYMELSSLRSEDTAVYYCATAGWGYWGQGTTVTVSS VL: DIQMTQSPSSLSASVGDRVTITCKASQDINSYLSWYQQKPGKAPKLLIYRANRLLDGVPSRFSGSGSGQDYTLTISSLQPEDFATYYCLQYDEFPFTFGQGTKLEIKR next.
result: 960000 M⁻¹ s⁻¹

query: Try humanized (with affinity maturation) antibody 101F4H2L2-8 (antibody, human IgG4 S228P, kappa, V domains shown) VH: QVQLVQSGAEVKKPGASVKVSCKVSGYTFTDYEMHWVRQAPGKGLEWMGAIDPETGGIVYNQRFKGRVTLTADTSTDTAYMELSSLRSEDTAVYYCATTGWNDWGQGTTVTVSS VL: DIQMTQSPSSLSASVGDRVTITCKASQDINSYLSWYQQKPGKAPKLLIYRANRLLDGVPSRFSGSGSGQDYTLTISSLQPEDFATYYCQQYDEFPFTFGQGTKLEIKR next.
result: 104000 M⁻¹ s⁻¹

query: Try chimeric 101F4 antibody (antibody, human IgG4 S228P, kappa, V domains shown, Mouse variable regions on human IgG4 (S228P)/kappa constant regions; also called 101F4-CM) VH: EVQLEQSGAELVRPGASVTLSCKASGYTFTDYEMHWVKQTPVYGLEWMGAIDPETGGIVYNQRFKGKAILTADKSSSTAYMELRSLTSEDSAVYYCTGAGWGYWGQGTTLTVSS VL: DIVITQSPSSMYASLGERVTITCKASQDINSYLSWFQQKPGKSPKTLIYRANRLLDGVPSRFSGSGSGQDYSLTISSLEFEDMGLYYCLQYDEFPFTFGSGTKLEIKR next.
result: 403000 M⁻¹ s⁻¹
